Tested on: EW-1;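 further: growth inhibition of the human EW-1 cell line, read out by a cell viability assay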
ASSAY OVERVIEW: cells
Type: functional, cell-based
EXPERIMENTAL CONDITIONS: Homo sapiens
Description: SANGER: Inhibition of human EW-1 cell growth in a cell viability assay.
Each entry below carries its reported pIC50.
// pIC50 is dimensionless: -log10 of concentration (M)

1) Fc1cc(-c2cc[nH]/c(=N/c3ccc(-n4cnc(N5CCOCC5)n4)cc3)n2)cc(N2CCOCC2)c1 = 6.26

// next item, pIC50 requested
[in] Please list pIC50 recorded for the molecule NC(=O)c1ncn([C@@H]2O[C@H](COP(=O)(O)O)[C@@H](O)[C@H]2O)c1N
[out] 2.73

###

System: LOX IMVI
ASSAY OVERVIEW: cells
Type: functional, cell-based
EXPERIMENTAL CONDITIONS: Homo sapiens
Description: SANGER: Inhibition of human LOXIMVI cell growth in a cell viability assay.
pIC50: −log10 of the molar value.
READOUT LABEL: pIC50

Illustrative cases are given below, each with its answer.
1. CC[C@]1(O)C[C@@H]2CN(CCc3c([nH]c4ccccc34)[C@@](C(=O)OC)(c3cc4c(cc3OC)N(C)[C@H]3[C@@](O)(C(=O)OC)[C@H](OC(C)=O)[C@]5(CC)C=CCN6CC[C@]43[C@@H]65)C2)C1 [VINBLASTINE] = 8.16
2. Cc1[nH]c(/C=C2\C(=O)Nc3ccc(S(=O)(=O)Cc4c(Cl)cccc4Cl)cc32)c(C)c1C(=O)N1CCC[C@@H]1CN1CCCC1 [PHA-665752] = < 5.70
3. CO[C@@]12[C@H](COC(N)=O)C3=C(C(=O)C(C)=C(N)C3=O)N1C[C@@H]1N[C@@H]12 [MITOMYCIN] = 6.45

[in] Read off the recorded pIC50 for Cn1cc(/C=C2\C(=O)Nc3cccnc32)c2ccccc21
[out] < 5.70

[in] Read the entry N#C/C(=C1/Nc2ccccc2S1)c1ccnc(NCCc2cccnc2)n1 and write its reported pIC50.
[out] < 5.10

[in] Supply measured pIC50 of O=c1cc(N2CCOCC2)oc2c(-c3cccc4c3sc3ccccc34)cccc12 in your reply.
[out] < 5.70

# credit: ChEMBL document CHEMBL1201861
